# Test system: Trichopyton mentagrophytes (ATCC18748)
# experiment summary: Measurement of antimycotic activity (Alamar Blue growth inhibition of dermatophytes)
# Assay type: cell-based
# condition set: minimum concentration at which the growth inhibition rate is 80% or more; read-out: MIC80 Concentration
# Experimental: 10.4 g of RPMI1640 (manufactured by SAFC Biosciences) were dissolved in 900 mL of distilled water, and 34.53 g of a 0.165 M MOPS buffer (manufactured by DOJINDO LABORATORIES) were added and dissolved by stirring. Dermatophytes (Trichopyton mentagrophytes (ATCC18748)) were inoculated into a 1/10 Sabouraud Dextrose agar medium (manufactured by DIFCO) and cultured at 28° C. for 14 days, and then a conidial suspension was prepared using 0.1% Tween80-including physiological saline. […]
Measured MIC80 by item

# compound, result modifier, MIC80 / µg/mL
measured = [
    ("NCCOC(c1ccccc1)(c1ccccc1)c1ccccc1", "=", 100),
    ("OCCNC(c1ccccc1)(c1ccccc1)c1ccccc1", ">", 100),
    ("Clc1ccccc1C(c1ccccc1)(c1ccccc1)n1ccnc1 [Clotrimazole, clotrimazole, reference compound]", "=", 0.625),
    ("Cc1ccc(C(O)c2ccc(C)cc2)cc1 [Compound 14, [bis(4-methylphenyl)]methanol]", "=", 100),
    ("NC(c1ccccc1)c1ccccc1", ">", 100),
    ("NC(c1ccccc1)(c1ccccc1)c1ccccc1", ">", 100),
]
